- tgt: Tyrosine-protein kinase receptor TYRO3 (Homo sapiens, UniProt Q06418)
- Sequence (Q06418 whole entry): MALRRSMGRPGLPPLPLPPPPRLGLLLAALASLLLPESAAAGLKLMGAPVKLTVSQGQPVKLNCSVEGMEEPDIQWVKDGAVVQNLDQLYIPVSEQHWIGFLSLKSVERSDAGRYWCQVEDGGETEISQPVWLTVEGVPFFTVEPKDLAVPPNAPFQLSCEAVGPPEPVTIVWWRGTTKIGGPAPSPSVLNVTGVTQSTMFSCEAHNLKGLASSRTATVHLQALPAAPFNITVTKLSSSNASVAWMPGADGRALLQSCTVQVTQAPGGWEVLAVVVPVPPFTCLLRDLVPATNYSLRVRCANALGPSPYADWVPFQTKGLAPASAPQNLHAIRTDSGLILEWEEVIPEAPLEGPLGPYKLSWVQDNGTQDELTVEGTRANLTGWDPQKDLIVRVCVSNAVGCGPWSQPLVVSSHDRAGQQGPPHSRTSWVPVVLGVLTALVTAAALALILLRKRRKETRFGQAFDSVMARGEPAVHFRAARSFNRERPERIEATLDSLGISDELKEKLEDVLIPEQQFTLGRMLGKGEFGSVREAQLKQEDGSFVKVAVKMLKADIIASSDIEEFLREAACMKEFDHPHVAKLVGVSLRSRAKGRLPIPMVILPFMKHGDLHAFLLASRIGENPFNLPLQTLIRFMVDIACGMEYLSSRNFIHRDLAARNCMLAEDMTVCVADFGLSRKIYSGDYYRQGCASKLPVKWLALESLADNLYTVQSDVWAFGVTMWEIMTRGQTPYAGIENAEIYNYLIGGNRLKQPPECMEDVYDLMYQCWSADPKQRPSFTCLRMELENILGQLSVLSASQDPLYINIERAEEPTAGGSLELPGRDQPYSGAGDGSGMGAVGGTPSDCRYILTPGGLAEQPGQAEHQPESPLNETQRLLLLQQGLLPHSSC
- test.description: Inhibition of recombinant human RSE (451 to end residues) using KVEKIGEGTYGVVYK as substrate incubated for 40 mins in presence of [gamma33P]ATP by scintillation counting based radiometry assay
observed.property: pIC50
Please report pIC50 as the negative decimal logarithm of the molar concentration, giving only the number.

Measured pIC50 of CC(C)n1cc(C(=O)Nc2ccc(Oc3ccnc(NC(=O)C4CC4)c3)c(F)c2)c(=O)n(-c2ccc(F)cc2)c1=O : 9.00

----------
- tgt: Fibroblast growth factor receptor 1 (Homo sapiens, UniProt P11362)
- Sequence (P11362 whole entry, the tested form may be a part): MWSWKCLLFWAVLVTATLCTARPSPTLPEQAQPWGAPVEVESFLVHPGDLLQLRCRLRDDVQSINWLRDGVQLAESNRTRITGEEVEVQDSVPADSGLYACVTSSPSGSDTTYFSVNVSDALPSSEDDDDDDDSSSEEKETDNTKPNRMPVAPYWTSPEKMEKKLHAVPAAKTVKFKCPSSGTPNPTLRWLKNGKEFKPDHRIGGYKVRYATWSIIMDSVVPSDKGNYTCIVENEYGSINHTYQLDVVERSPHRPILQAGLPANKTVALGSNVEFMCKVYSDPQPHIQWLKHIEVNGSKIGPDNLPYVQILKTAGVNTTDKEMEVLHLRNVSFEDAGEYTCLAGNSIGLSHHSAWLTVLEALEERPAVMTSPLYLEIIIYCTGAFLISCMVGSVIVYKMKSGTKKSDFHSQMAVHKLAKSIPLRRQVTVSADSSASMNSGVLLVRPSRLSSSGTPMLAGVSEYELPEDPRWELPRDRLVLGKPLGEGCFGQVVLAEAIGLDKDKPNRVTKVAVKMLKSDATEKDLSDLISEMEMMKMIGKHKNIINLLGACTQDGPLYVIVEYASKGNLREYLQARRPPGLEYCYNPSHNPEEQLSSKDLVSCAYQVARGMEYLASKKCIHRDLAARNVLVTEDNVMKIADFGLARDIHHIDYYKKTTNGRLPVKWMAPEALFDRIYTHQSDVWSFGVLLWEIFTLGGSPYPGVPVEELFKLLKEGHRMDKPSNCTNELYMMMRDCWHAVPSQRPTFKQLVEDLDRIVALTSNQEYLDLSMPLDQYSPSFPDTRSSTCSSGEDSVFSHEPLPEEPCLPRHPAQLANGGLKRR
- test.description: Inhibition of recombinant human FGFR1 (456 to 765 residues) using KKKSPGEYVNIEF as substrate incubated for 40 mins in presence of [gamma-33ATP] by radiometric scintillation counting analysis
pIC50: −log10 of the molar value.
observed.property: pIC50

Measured pIC50 of CC(C)n1cc(C(=O)Nc2ccc(Oc3ccnc(NC(=O)C4CC4)c3)c(F)c2)c(=O)n(-c2ccc(F)cc2)c1=O : < 6.00
